- test.protocol: In vivo pharmacokinetic studies of pyridyl substituted ketolides in rats (plasma and whole lung, LC-MS-MS)
- test.parameters: rat, plasma; male Sprague-Dawley rats, PO 15 mg/kg vs IV 5 mg/kg; read-out: F, PO (% bioavailability)
recorded.metric: bioavailability (%)
Numbers only; they are read as %.

Known results for compounds:
>  <compound>
CC[C@H]1OC(=O)[C@H](C)C(=O)[C@H](C)[C@@H](OC2O[C@H](C)C[C@H](N(C)C)[C@H]2O)[C@@](C)(OC)C[C@@H](C)C(=O)[C@H](C)[C@H]2N(CCCCn3cnc(-c4ccc(OC)nc4)c3)C(=O)O[C@]12C (stereo partly drawn)

>  <bioavailability / %>
100

$$$$
>  <compound>
CC[C@H]1OC(=O)[C@H](C)C(=O)[C@H](C)[C@@H](O[C@@H]2O[C@H](C)C[C@H](N(C)C)[C@H]2O)[C@@](C)(OC)C[C@@H](C)C(=O)[C@H](C)[C@H]2N(CCCCn3cnc(-c4ccc(C)nc4)c3)C(=O)O[C@]12C

>  <bioavailability / %>
54

$$$$

# context switch: different compound, same bioavailability
Query: bioavailability; subject: CC[C@H]1OC(=O)[C@H](C)C(=O)[C@H](C)[C@@H](O[C@@H]2O[C@H](C)C[C@H](N(C)C)[C@H]2O)[C@@](C)(OC)C[C@@H](C)C(=O)[C@H](C)[C@H]2N(CCCCn3cnc(-c4ccc(Cl)nc4)c3)C(=O)O[C@]12C
86

====

- test.protocol: In vivo pharmacokinetic studies of pyridyl substituted ketolides in rats (plasma and whole lung, LC-MS-MS)
- test.parameters: rat, plasma; male Sprague-Dawley rats, IV = 5 mg/kg; PO = 15 mg/kg; read-out: Vss (volume of distribution)
recorded.metric: Vd (L/kg)
Reply numerically in L/kg, unit not repeated.

Known results for molecules:
>  <molecule>
CC[C@H]1OC(=O)[C@H](C)C(=O)[C@H](C)[C@@H](O[C@@H]2O[C@H](C)C[C@H](N(C)C)[C@H]2O)[C@](C)(OC)C[C@@H](C)C(=O)[C@H](C)[C@H]2N(CCCCn3cnc(-c4cccnc4)c3)C(=O)O[C@]12C [Telithromycin, telithromycin, reference compound]

>  <unit.label>
L/kg

>  <result>
5

$$$$
>  <molecule>
CC[C@H]1OC(=O)[C@H](C)C(=O)[C@H](C)[C@@H](O[C@@H]2O[C@H](C)C[C@H](N(C)C)[C@H]2O)[C@@](C)(OC)C[C@@H](C)C(=O)[C@H](C)[C@H]2N(CCCCn3cnc(-c4ccc(C)nc4)c3)C(=O)O[C@]12C

>  <unit.label>
L/kg

>  <result>
6.5

$$$$
>  <molecule>
CC[C@H]1OC(=O)[C@H](C)C(=O)[C@H](C)[C@@H](OC2O[C@H](C)C[C@H](N(C)C)[C@H]2O)[C@@](C)(OC)C[C@@H](C)C(=O)[C@H](C)[C@H]2N(CCCCn3cnc(-c4ccc(OC)nc4)c3)C(=O)O[C@]12C (stereo partly shown)

>  <unit.label>
L/kg

>  <result>
4.3

$$$$

--- query ---
Bench note: what Vd did CC[C@H]1OC(=O)[C@H](C)C(=O)[C@H](C)[C@@H](O[C@@H]2O[C@H](C)C[C@H](N(C)C)[C@H]2O)[C@@](C)(OC)C[C@@H](C)C(=O)[C@H](C)[C@H]2N(CCCCn3cnc(-c4ccc(Cl)nc4)c3)C(=O)O[C@]12C show?
5.6

====

- test.protocol: In vivo pharmacokinetic studies of pyridyl substituted ketolides in rats (plasma and whole lung, LC-MS-MS)
- test.parameters: rat; male Sprague-Dawley rats, IV bolus 5 mg/kg, plasma; read-out: t1/2, IV Plasma (converted)
recorded.metric: half-life (h)
Report only the number, with the unit h understood.

Find the recorded half-life belonging to CC[C@H]1OC(=O)[C@H](C)C(=O)[C@H](C)[C@@H](OC2O[C@H](C)C[C@H](N(C)C)[C@H]2O)[C@@](C)(OC)C[C@@H](C)C(=O)[C@H](C)[C@H]2N(CCCCn3cnc(-c4ccc(OC)nc4)c3)C(=O)O[C@]12C (stereo partly drawn) and report it.
2.1

Could you share which half-life value was measured for CC[C@H]1OC(=O)[C@H](C)C(=O)[C@H](C)[C@@H](O[C@@H]2O[C@H](C)C[C@H](N(C)C)[C@H]2O)[C@@](C)(OC)C[C@@H](C)C(=O)[C@H](C)[C@H]2N(CCCCn3cnc(-c4ccc(Cl)nc4)c3)C(=O)O[C@]12C ?
1.6

What value of half-life has been recorded for this entry: CC[C@H]1OC(=O)[C@H](C)C(=O)[C@H](C)[C@@H](O[C@@H]2O[C@H](C)C[C@H](N(C)C)[C@H]2O)[C@@](C)(OC)C[C@@H](C)C(=O)[C@H](C)[C@H]2N(CCCCn3cnc(-c4ccc(C)nc4)c3)C(=O)O[C@]12C
1.8

====

- test.protocol: In vivo pharmacokinetic studies of pyridyl substituted ketolides in rats (plasma and whole lung, LC-MS-MS)
- test.parameters: rat; male Sprague-Dawley rats, IV bolus 5 mg/kg, whole lung vs plasma; read-out: L/P ratio, IV (ratio of drug in lung/plasma after IV dosing)
- Protocol: Animal Models. A total of 54 male Sprague-Dawley rats, weighing 200 grams in average, are evaluated for pharmacokinetic studies of representative substituted pyridyl ketolides. Rats are under overnight food restriction and receive water ad libitum. Rats are acclimated for approximately 5 days before antibiotic administration. Antibiotic Administration. […] Ketolide concentrations in plasma and lung are determined by well-established non-GLP LC-MS-MS methods. […]
List of Kp values.
Answer using only a numeral; do not append any unit.

Answered cases to consult:
>  <molecule>
CC[C@H]1OC(=O)[C@H](C)C(=O)[C@H](C)[C@@H](OC2O[C@H](C)C[C@H](N(C)C)[C@H]2O)[C@@](C)(OC)C[C@@H](C)C(=O)[C@H](C)[C@H]2N(CCCCn3cnc(-c4ccc(OC)nc4)c3)C(=O)O[C@]12C (stereo partly shown)

>  <Kp>
32

$$$$
>  <molecule>
CC[C@H]1OC(=O)[C@H](C)C(=O)[C@H](C)[C@@H](O[C@@H]2O[C@H](C)C[C@H](N(C)C)[C@H]2O)[C@@](C)(OC)C[C@@H](C)C(=O)[C@H](C)[C@H]2N(CCCCn3cnc(-c4ccc(C)nc4)c3)C(=O)O[C@]12C

>  <Kp>
27

$$$$
>  <molecule>
CC[C@H]1OC(=O)[C@H](C)C(=O)[C@H](C)[C@@H](O[C@@H]2O[C@H](C)C[C@H](N(C)C)[C@H]2O)[C@@](C)(OC)C[C@@H](C)C(=O)[C@H](C)[C@H]2N(CCCCn3cnc(-c4ccc(Cl)nc4)c3)C(=O)O[C@]12C

>  <Kp>
29

$$$$

Now for a further molecule.
What does the data say about its Kp? Entry: CC[C@H]1OC(=O)[C@H](C)C(=O)[C@H](C)[C@@H](O[C@@H]2O[C@H](C)C[C@H](N(C)C)[C@H]2O)[C@](C)(OC)C[C@@H](C)C(=O)[C@H](C)[C@H]2N(CCCCn3cnc(-c4cccnc4)c3)C(=O)O[C@]12C [Telithromycin, telithromycin, reference compound]
16

====

- test.protocol: In vivo pharmacokinetic studies of pyridyl substituted ketolides in rats (plasma and whole lung, LC-MS-MS)
- test.parameters: rat; male Sprague-Dawley rats, PO 15 mg/kg, plasma; read-out: t1/2, PO Plasma (converted)
Listed molecules paired with reported half-life
Could you give me the number in h? Just the number is fine.

>  <smiles.record>
CC[C@H]1OC(=O)[C@H](C)C(=O)[C@H](C)[C@@H](O[C@@H]2O[C@H](C)C[C@H](N(C)C)[C@H]2O)[C@@](C)(OC)C[C@@H](C)C(=O)[C@H](C)[C@H]2N(CCCCn3cnc(-c4ccc(Cl)nc4)c3)C(=O)O[C@]12C

>  <half-life (h)>
3.3

$$$$

Proceeding to the next molecule to report its half-life.
Recorded half-life of CC[C@H]1OC(=O)[C@H](C)C(=O)[C@H](C)[C@@H](O[C@@H]2O[C@H](C)C[C@H](N(C)C)[C@H]2O)[C@@](C)(OC)C[C@@H](C)C(=O)[C@H](C)[C@H]2N(CCCCn3cnc(-c4ccc(C)nc4)c3)C(=O)O[C@]12C , please.
3.3

====

- test.protocol: In vivo pharmacokinetic studies of pyridyl substituted ketolides in rats (plasma and whole lung, LC-MS-MS)
- test.parameters: rat, plasma; male Sprague-Dawley rats, IV = 5 mg/kg; PO = 15 mg/kg; read-out: CL (clearance of the compound from plasma)
- Procedure: Animal Models. A total of 54 male Sprague-Dawley rats, weighing 200 grams in average, are evaluated for pharmacokinetic studies of representative substituted pyridyl ketolides. Rats are under overnight food restriction and receive water ad libitum. Rats are acclimated for approximately 5 days before antibiotic administration. Antibiotic Administration. […] Ketolide concentrations in plasma and lung are determined by well-established non-GLP LC-MS-MS methods. […]
recorded.metric: clearance (mL/min/kg)
Reply numerically in mL/min/kg, unit not repeated.

>  <compound>
CC[C@H]1OC(=O)[C@H](C)C(=O)[C@H](C)[C@@H](O[C@@H]2O[C@H](C)C[C@H](N(C)C)[C@H]2O)[C@](C)(OC)C[C@@H](C)C(=O)[C@H](C)[C@H]2N(CCCCn3cnc(-c4cccnc4)c3)C(=O)O[C@]12C [Telithromycin, telithromycin, reference compound]

>  <clearance (mL/min/kg)>
100

$$$$

Please look up its clearance: CC[C@H]1OC(=O)[C@H](C)C(=O)[C@H](C)[C@@H](O[C@@H]2O[C@H](C)C[C@H](N(C)C)[C@H]2O)[C@@](C)(OC)C[C@@H](C)C(=O)[C@H](C)[C@H]2N(CCCCn3cnc(-c4ccc(C)nc4)c3)C(=O)O[C@]12C
48

I'd like to know its clearance. The compound in question is CC[C@H]1OC(=O)[C@H](C)C(=O)[C@H](C)[C@@H](OC2O[C@H](C)C[C@H](N(C)C)[C@H]2O)[C@@](C)(OC)C[C@@H](C)C(=O)[C@H](C)[C@H]2N(CCCCn3cnc(-c4ccc(OC)nc4)c3)C(=O)O[C@]12C (stereo partly shown)
25

I would be grateful if you could share the reported clearance for CC[C@H]1OC(=O)[C@H](C)C(=O)[C@H](C)[C@@H](O[C@@H]2O[C@H](C)C[C@H](N(C)C)[C@H]2O)[C@@](C)(OC)C[C@@H](C)C(=O)[C@H](C)[C@H]2N(CCCCn3cnc(-c4ccc(Cl)nc4)c3)C(=O)O[C@]12C .
38
